Target: MMP-2 (Rattus norvegicus (Rat), UniProt P33436)
Sequence (P33436 110-662): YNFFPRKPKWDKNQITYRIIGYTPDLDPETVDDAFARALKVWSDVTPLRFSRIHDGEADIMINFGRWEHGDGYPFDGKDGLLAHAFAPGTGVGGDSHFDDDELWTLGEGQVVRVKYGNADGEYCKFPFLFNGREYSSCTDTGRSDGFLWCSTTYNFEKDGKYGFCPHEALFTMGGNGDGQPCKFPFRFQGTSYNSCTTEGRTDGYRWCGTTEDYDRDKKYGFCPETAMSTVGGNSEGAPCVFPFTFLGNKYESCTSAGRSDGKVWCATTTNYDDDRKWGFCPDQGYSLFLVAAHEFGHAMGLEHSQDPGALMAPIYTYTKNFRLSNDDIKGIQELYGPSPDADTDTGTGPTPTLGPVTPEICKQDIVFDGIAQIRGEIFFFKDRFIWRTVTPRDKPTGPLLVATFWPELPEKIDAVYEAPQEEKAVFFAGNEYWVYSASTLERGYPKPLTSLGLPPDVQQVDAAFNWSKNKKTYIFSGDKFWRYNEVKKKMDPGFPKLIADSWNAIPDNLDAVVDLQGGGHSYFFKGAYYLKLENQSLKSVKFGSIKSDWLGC
Assay: In vitro zymography assay (gelatin), MMP-2
Assay type: biochemical
parameter: pIC50
Just the number, please; pIC50 means minus log10 of the concentration in mol/L.

Give recorded pIC50 with MMP-2 (Rattus norvegicus (Rat), UniProt P33436) for the following molecule: CNC(=O)[C@H](Cc1c[nH]c2ccccc12)NC(=O)[C@@H](CC(=O)NO)CC(C)C [ilomastat, reference compound]
9.15

====

Tested on: healthy human fibroblast cell line MRC-5
Test: Cytotoxicity, alamarBlue viability, MRC-5
Format: cell-based
Settings: 48 hours incubation, read-out: MRC-5 LC50
Structures can show the parent of a compound that is named as a salt.
parameter: CC50 (µM)
The answer is to be given in µM; state only the numeric part.

Quick check: CC50 of O=C(O)c1c[nH]c(CN(Cc2ccc(F)cc2)Cc2ccc(OCc3ccccc3)cc2)n1 [Compound 30 HCl] ?
15

====

Molecular target: UniProt P45452
Test: MMP activity assay (fluorogenic substrate), MMP13 catalytic domain
Format: biochemical
Details: Table 2; read-out: MMP13 IC50
parameter: log10 IC50 (log10 of the value in µM)
Friendly reminder: values = log10 of IC50, unit µM.

Would you please look over these solved cases?
CCOC(=O)c1csc(CN(Cc2ccc(F)cc2)Cc2ccc(OCc3ccncc3)cc2)n1 [Compound 18] :: 1.11
O=C(c1cnc(CCc2ccccc2)[nH]1)N1CCCC1 [Compound 38] :: 1.73
O=C(O)c1csc(CN(Cc2ccc(F)cc2)Cc2ccc(-c3ccccc3)cc2)n1 [Compound 15] :: 0.48

Suppose we examine the compound CCOC(=O)c1csc(CN(Cc2ccc(F)cc2)Cc2ccc(OCc3cccnc3)cc2)n1 [Compound 2] ; what log10 IC50 value has been reported?
0.57

What value of log10 IC50 has been recorded for this entry: O=C(O)c1csc(CN(Cc2ccc(OCc3cccnc3)cc2)Cc2cccnc2)n1 [Compound 10]
0.18

Could you share which log10 IC50 value was measured for CCOC(=O)c1csc(CN(Cc2ccc(OCc3cccnc3)cc2)Cc2cccnc2)n1 [Compound 17] ?
1.28

# query: log10 IC50 of entry O=C(O)c1csc(CN(Cc2ccc(OCc3ccccc3)cc2)Cc2cccnc2)n1 [Compound 14]
0.90

Which log10 IC50 value belongs to O=C(O)c1cnc(-c2ccccc2)[nH]1 [Compound 40, 2-Phenyl-3H-imidazole-4-carboxylic acid] ?
2.22

State the recorded log10 IC50 for this entry: O=C(O)c1c[nH]c(CN(Cc2ccc(F)cc2)Cc2ccc(OCc3ccccc3)cc2)n1 [Compound 30]
0.25

====

Biological target: MMP13 (Homo sapiens (Human), UniProt P45452)
Experiment: MMP activity assay (fluorogenic substrate), MMP13 catalytic domain
Format: biochemical
Conditions: read-out: IC50 on MMP13
parameter: IC50 (pM)
# value in pM; strip the unit string

Request: IC50, test system MMP13 (Homo sapiens (Human), UniProt P45452), entry CNC(=O)[C@H](Cc1c[nH]c2ccccc12)NC(=O)[C@@H](CC(=O)NO)CC(C)C [ilomastat, reference compound]
200

====

Target: MMP1 (Homo sapiens (Human), UniProt P03956)
Sequence (P03956 100-469, species assumed): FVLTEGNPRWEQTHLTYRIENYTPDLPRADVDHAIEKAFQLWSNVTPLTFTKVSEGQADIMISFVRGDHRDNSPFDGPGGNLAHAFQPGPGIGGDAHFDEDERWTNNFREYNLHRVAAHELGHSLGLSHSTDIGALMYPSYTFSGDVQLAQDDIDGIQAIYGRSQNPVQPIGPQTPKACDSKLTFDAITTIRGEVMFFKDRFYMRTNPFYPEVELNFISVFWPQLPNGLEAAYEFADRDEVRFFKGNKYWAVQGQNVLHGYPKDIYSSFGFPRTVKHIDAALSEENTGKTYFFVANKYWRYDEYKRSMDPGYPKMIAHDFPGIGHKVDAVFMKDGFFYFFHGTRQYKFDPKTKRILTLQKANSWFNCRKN
Assay: MMP activity assay (fluorogenic substrate), MMP1
Type: biochemical
Settings: Table 2; read-out: MM1 IC50
pIC50: −log10 of the molar value.
Mark NOT MET for pIC50 values under 4, and MET for everything at or above.

CCOC(=O)c1csc(CN(Cc2ccc(F)cc2)Cc2ccc(OCc3ccncc3)cc2)n1 [Compound 18] :: NOT MET
O=C(O)c1csc(CN(Cc2ccc(OCc3cccnc3)cc2)Cc2cccnc2)n1 [Compound 10] :: NOT MET
CCOC(=O)c1csc(CN(Cc2ccc(OCc3ccccc3)cc2)Cc2cccnc2)n1 [Compound 16] :: NOT MET

In plain terms: is recorded pIC50 at least 4 for O=C(O)c1csc(CN(Cc2ccc(F)cc2)Cc2ccc(OCc3cccnc3)cc2)n1 [Compound 1] ?
MET

Check the entry O=C(O)c1csc(CN(Cc2ccc(OCc3ccncc3)cc2)Cc2cccnc2)n1 [Compound 12] : does pIC50 equal or exceed 4?
NOT MET

Is pIC50 at least 4? Consider Cn1cc(C(F)(F)F)nc1CN(Cc1ccc(F)cc1)Cc1ccc(OCc2ccccc2)cc1 [Compound 26]
NOT MET

Kindly determine if pIC50 recorded for CCOC(=O)c1csc(CN(Cc2ccc(OCc3ccncc3)cc2)Cc2cccnc2)n1 [Compound 19] is above or exactly 4.
NOT MET

Could you please find out whether O=C(O)c1csc(CN(Cc2ccc(F)cc2)Cc2ccc(-c3ccccc3)cc2)n1 [Compound 15] has pIC50 that meets 4 or exceeds it?
MET

# check: pIC50 of CCOC(=O)c1csc(CN(Cc2ccc(OCc3cccnc3)cc2)Cc2cccnc2)n1 [Compound 17] is greater than or equal to 4
NOT MET

Entry O=C(O)c1c[nH]c(CNCc2ccc(OCc3cccnc3)cc2)n1 [Compound 31] : is its pIC50 no less than 4?
NOT MET

# check: pIC50 of O=C(O)c1csc(CN(Cc2ccc(F)cc2)Cc2ccc(OCc3ccccc3)cc2)n1 [ALBH-known, reference compound] is greater than or equal to 4
MET

Quick check, pIC50 >= 4? O=C(O)c1csc(CN(Cc2ccccc2)Cc2ccccc2)n1 [Compound 7]
MET

Value source: patent US9487462B2
